System: NCI/ADR-RES ovarian
measurement.protocol: NCI tumour cell line growth inhibition, 48 h
property.label: GI50

Known GI50 results, listed for orientation:
{"compound": "Cc1ccc(S(=O)(=O)N(C)C)cc1[N+](=O)[O-]", "property.label": "GI50", "observed.value": "> 100 µM"}
{"compound": "CCC(=O)Sc1ccccc1C(=O)Nc1ccc(Cl)cc1", "property.label": "GI50", "observed.value": "6.45 µM"}
{"compound": "O=C(CC12CC3CC(CC(C3)C1)C2)NCCOCCOCCNC(=O)c1cc2c(o1)C(=O)c1ccccc1C2=O", "property.label": "GI50", "observed.value": "2.07 µM"}
{"compound": "CN(C(=O)C1CCCCC1)c1ccccc1I(=O)=O", "property.label": "GI50", "observed.value": "35.9 µM"}
{"compound": "O=C(NCc1cn(Cc2cccc(Oc3ccccc3)c2)nn1)c1cccnc1Nc1ccccc1", "property.label": "GI50", "observed.value": "2.47 µM"}
{"compound": "Nc1ccccc1C#C/C=C\\C#Cc1ccc(F)cc1F", "property.label": "GI50", "observed.value": "6.22 µM"}

Next item in the queue.
Q: What GI50 value was documented for this compound, CCN(CC)c1ccc(NC(C(=O)c2ccccc2)c2ccccc2)cc1 (configuration not stated) ?
A: 2.54 µM

Value source: PubChem BioAssay (NCI)
